- Method Description: Cytotoxicity in bone marrow-differentiated macrophages, alamarBlue, 72 h
- Type: cell-based
- Details: mouse
Property: CC50 at 72 h (µM)

> print(dat)
                                   compound      property  unit.name  readout.value
1  CC(=O)OC(OC(C)=O)c1ccc([N+](=O)[O-])o1 [5-nitro-2-furaldehide diacetate, 5-Nitro-2-furaldehyde diacetate]  CC50 at 72 h         µM           11.9

---

- Method Description: Cytotoxicity, alamarBlue, 72 h
- Format: cell-based, murine
- Details: mouse
- Protocol: For cytotoxicity tests, several mammalian cell lines were used. […] Primary cell cultures were also used to evaluate cytotoxicity. […] The in vitro cytotoxicity of the selected nitrofurans was evaluated in HepG2, RAW 264.7 cells, splenocytes and BMDM. […] The cytotoxic effect of the compounds was measured after 72 h of incubation at 37 °C and 5 % CO2. […] Fluorescence was measured using a Varioskan Lux spectrophotometer (ThermoFisher Scientific, Waltham, MA, USA). […]
Property: CC50 at 72 h (µM)

> print(dat)
                                   compound  readout.value
1  CC(=O)OC(OC(C)=O)c1ccc([N+](=O)[O-])o1 [5-nitro-2-furaldehide diacetate, 5-Nitro-2-furaldehyde diacetate]           15.6
